pEC50 by entry:
Molecular target: human β2 adrenergic receptor (Homo sapiens)
Sequence (P07550 whole entry): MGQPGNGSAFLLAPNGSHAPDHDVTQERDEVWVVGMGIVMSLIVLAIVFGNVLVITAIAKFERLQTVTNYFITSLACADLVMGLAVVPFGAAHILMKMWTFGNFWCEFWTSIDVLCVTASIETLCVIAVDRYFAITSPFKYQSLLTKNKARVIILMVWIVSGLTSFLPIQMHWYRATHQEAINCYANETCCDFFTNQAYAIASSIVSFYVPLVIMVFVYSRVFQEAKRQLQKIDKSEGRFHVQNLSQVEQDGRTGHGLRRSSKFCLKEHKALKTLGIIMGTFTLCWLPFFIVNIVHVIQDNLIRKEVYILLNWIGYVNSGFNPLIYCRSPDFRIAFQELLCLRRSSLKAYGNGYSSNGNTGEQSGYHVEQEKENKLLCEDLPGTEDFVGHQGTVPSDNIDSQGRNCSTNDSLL
Assay: Whole-cell cAMP Flashplate assay using CHO-K1 cells stably expressing human β2 adrenergic receptor
Conditions: cAMP production
Experimental: The β2 adrenergic receptor, which couples to Gs proteins, activates adenylate cyclase upon agonist binding to the receptor. As a result, cAMP is produced in cells. The activation ability of the β2 adrenergic receptor can be measured by measuring the amount of the cAMP with cAMP-Screen System (Applied Biosystems). CHO-K1 cells expressing the human β2 adrenergic receptor suspended in Ham's F-12 media containing 10% FBS were seeded into 96-well plates at a volume of 100 μL/well. […]
Where a name gives a salt, the structure may show the parent alone.
Scale for pEC50: -log10 of concentration given in mol/L; no unit attached.

Here are 6 molecules together with their reported answers.
Dear colleague, I am looking for the recorded pEC50 of the following molecule: C[N+]1(C)CCC(OC(=O)Nc2cc(CCC(=O)Nc3ccc(CCCNC[C@H](O)c4ccc(O)c5[nH]c(=O)ccc45)cc3)ccc2-c2ccccc2)CC1 [Example 62, trifluoroacetate] 8.82

Repeat with C[N+]1(C)CCC(OC(=O)Nc2cc(CCCC(=O)Nc3ccc(CNC[C@H](O)c4ccc(O)c5[nH]c(=O)ccc45)cn3)ccc2-c2ccccc2)CC1 [Example 24, trifluoroacetate] 8.18

Repeat with C[N+]1(C)CCC(OC(=O)Nc2cc(CCC(=O)Nc3cc(F)c(CNC[C@H](O)c4ccc(O)c5[nH]c(=O)ccc45)cc3F)ccc2-c2ccccc2)CC1 [Example 5, trifluoroacetate] 8.09

Repeat with C[N+]1(C)CCC(OC(=O)Nc2cc(CCCC(=O)Nc3ccc(CNC[C@H](O)c4ccc(O)c5[nH]c(=O)ccc45)cc3F)ccc2-c2ccccc2)CC1 [Example 28, trifluoroacetate] 9.15

Repeat with C[N+]1(C)[C@@H]2C[C@@H](OC(=O)Nc3ccc(CCCC(=O)Nc4ccc5cc(CNC[C@H](O)c6ccc(O)c7[nH]c(=O)ccc67)ccc5c4)cc3-c3ccccc3)C[C@H]1[C@@H]1O[C@@H]12 9.05

Repeat with COc1cc(NC(=O)CCCCc2ccc(-c3ccccc3)c(NC(=O)OC3C[C@@H]4[C@H]5O[C@H]5[C@H](C3)[N+]4(C)C)c2)c(Cl)cc1CNC[C@H](O)c1ccc(O)c2[nH]c(=O)ccc12 (some centres unmarked) 9.40

Continuing:
Dear colleague, I am looking for the recorded pEC50 of the following molecule: C[N+]1(C)CCC(OC(=O)Nc2cc(CCC(=O)NCc3ccc(CNC[C@H](O)c4ccc(O)c5[nH]c(=O)ccc45)cc3)ccc2-c2ccccc2)CC1 [Example 65, trifluoroacetate] 7.84

Repeat with Cc1cc(NC(=O)CCc2ccc(-c3ccccc3)c(NC(=O)OC3CC[N+](C)(C)CC3)c2)ccc1CNC[C@H](O)c1ccc(O)c2[nH]c(=O)ccc12 [Example 8, trifluoroacetate] 8.29

Repeat with COc1cc(NC(=O)CCc2ccc(-c3ccccc3)c(NC(=O)OC3CC[N+](C)(C)CC3)c2)ccc1CNC[C@H](O)c1ccc(O)c2[nH]c(=O)ccc12 [Example 6, trifluoroacetate] 8.77

Repeat with C[N+]1(C)CCC(OC(=O)Nc2cc(C(=O)OCCCCCCCNCC(O)c3ccc(O)c4[nH]c(=O)ccc34)ccc2-c2ccccc2)CC1 (centres unmarked) 9.30

Repeat with COc1cc(NC(=O)CCCc2ccc(-c3ccccc3)c(NC(=O)OC3CC[N+](C)(C)CC3)c2)c(Cl)cc1CNC[C@H](O)c1ccc(O)c2[nH]c(=O)ccc12 [Example 18, trifluoroacetate] 9.22
